Tested on: EKVX NSCLC
assay_remarks: NCI tumour cell line growth inhibition, 48 h
Here, each record is paired with measured TGI data.

molecule	TGI
[N-]=[N+]=NC1C(Br)C(=O)NC(=O)N1[C@H]1C[C@H](O)[C@@H](CO)O1 (stereo partly drawn)	> 100 µM
CCOC(=O)c1c(NC(=O)Nc2ccccc2)c(C(N)=O)c2n1CCCCC2	> 100 µM
O=C(O)C12C3CCCC1C2CC3 (stereo not drawn)	> 100 µM

###

Test system: EKVX NSCLC
assay_remarks: NCI tumour cell line growth inhibition, 48 h
Here, each record is paired with measured TGI data.
quantity_measured: TGI

molecule	quantity_measured	recorded_value
CCOC(=O)c1ccc(C(=O)/C(C#N)=C2\CCCN2)[nH]1	TGI	> 100 µM
NC1CC(=O)c2cc(Br)sc21 (stereo not given)	TGI	> 100 µM
CCOC(=O)n1cncc1CC(NC(=O)Cc1c(C(=O)C=C(C)C)[nH]c2ccccc12)C(=O)OC (stereo not given)	TGI	33.9 µM
COc1ccc(-c2nc(-c3cn(C)c4ncccc34)cs2)cc1	TGI	> 100 µM
O=C(/C=C/c1ccc(O)cc1)NCCc1ccc(O)cc1	TGI	> 12.5 µM
